Data export: MIC values recorded with E. faecium ATCC19434.

| compound | MIC, µg/mL |
| --- | --- |
| CNC1C(O[C@H]2OC(CO)[C@@H](NC(=O)[C@@H](C)N)[C@H](O)C2O)O[C@H]2CC(N)[C@@H](O[C@@H]3C(N)C[C@@H](N)C(O)[C@H]3O)OC2C1O (stereo partly drawn) [Compound V1-d, 4″-N-(D-alanyl)apramycin] | 64 |
| CNC1C(O[C@H]2OC(CO)[C@@H](NC(=O)CCN)[C@H](O)C2O)O[C@H]2C[C@H](N)[C@@H](O[C@@H]3C(N)C[C@@H](N)C[C@H]3O)OC2C1O (stereo partly drawn) [Compound V1-q, 4″-N-(β-alanyl)-6-deoxy-5-epiapramycin] | 8 |
| CNC1C(O[C@H]2OC(CO)[C@@H](NCCCN)[C@H](O)C2O)O[C@H]2CC(N)[C@@H](O[C@@H]3C(N)C[C@@H](N)C[C@H]3O)OC2C1O (stereo partly drawn) [Compound S1-n] | 8 |
